Quick list: t½ ratio pH 7.4/pH 5.0 per entry.
target-of-assay: T1, Ebola virus GP with a C-terminal polyhistidine tag (Sino Biologicals, Catalog #40442-V08B1) (Ebola virus, UniProt P87666 33-650)
T1 construct: also called EbolaGP.his; Ebola virus GP.his
test-protocol: SPR 37C, mAb captured, pH chase
Give only the figure.

>>> value_measured("H1M17357N (antibody, V domains shown, also called HCAF09D11-13) VH: QVQLVQSGAEVKKPGASVKVSCKASGYTFTSYYMHWVRQAPGQGLEWMGIINPSGGSTSYAQKFQGRVTMTRDTSTSTVYMELSSLRSEDTAVYYCAREIGEAGEVFNYWGQGTLVTVSS VL: DIQMTQSPSSLSASVGDRVTITCRASQSISRYLNWYQHKPGKAPKVLIYAASILQSGVPSRFSGSGSGTDFTLTISSLQPEDFATYYCQQSYSTPPITFGQGTRLEIK")
0.5
>>> value_measured("H1H17142P (antibody, V domains shown) VH: EVQLVESGGGLVQPGGSLRLSCAASGFTFSSYAMTWVRQAPGKGLEWVSSISGSGTSTYYADSVKGRFTISRDNSKNTLYLQMNSLRAEDTALYYCSRDIYTWNFLSLIGGMDVWGQGTTVTVSS VL: DIQMTQSPSSLSASVGDRVTITCRASQGIRIDLGWYQQKPGKAPNRLIYAASSLQGGVPSRFSGSGSGTEFTLTISSLQPEDFATYYCLQQNSYPWTFGQGTKVEIK")
0.5
>>> value_measured("H1H17196P (antibody, V domains shown) VH: EVQLVESGGGLVQPGGSLRLSCAASGFTFRSYDMHWVRQGSGKGLEWVSAIGTAGDTYYLGSVKGRFTISRENAKNSLYLQMNSLRAGDTAVYYCARAWFGDVFLDYWGQGTLVTVSS VL: EIVMTQSPATLSVSPGERATLSCRASQSVSSNLAWYQQKPGQAPRLLIYGASTRATGIPARFSGSGSGTEFTLTISSLQSEDFAGYYCQQYNNRLTFGGGTKVEIK")
1
>>> value_measured("H1H17223P (antibody, V domains shown) VH: EVQLVESGGGLVQPGGSLRLSCAASGFTFRTYDMHWVRQATGKGLEWVSAIGTAGDTYYPGSVKGRFTISRENAKNSLYLQMNSLRAGDTAVYYCARTIFGVVLTFDYWGQGTLVTVSS VL: DIQMTQSPSSLSASVGDRVTITCRASQSISSSLNWYQQKPGKAPKLLIYAASSLHSGVPSRFSGSGSGTDFTLTISSLQPEDFATYYCQQTYSIPPTTFGQGTKVEIK")
0.4

# ---- query binder ----
Asked: Dear colleague, I am looking for the recorded t½ ratio pH 7.4/pH 5.0 of the following binder: H1H17199P (antibody, V domains shown) VH: EVQLVESGGGLVQPGGSLRLSCAASGFTFSDHYMVWVRQAPGKGLEWVGRTRNKANSYSTEYAASVKGRFTISRDDSKKSLYLQMNSLKTEDTAVYYCARGGETLWFGESNYGMDVWGQGTTVTVSS VL: EIVLTQSPDTLSLSPGERATLSCRASQSVSSTYLAWYQQKPGQAPSLLIYGASSRATGIPDRFSGSGSGTDFTLTISRLEPEDFAVYYCQQYGRSPLTFGGGTKVEIK
Given back: 0.1
